target: 5-hydroxytryptamine receptor 1A (Homo sapiens); experiment: Displacement of [3H]8-OH-DPAT from recombinant human 5-HT1A receptor expressed in HEK293 cell membranes at 10 uM after 60 mins by TopCount scintillation counting method relative to control
As shown below, each of these compounds has a reported inhibition value.
Give just the numeric value; % need not be written.

Study these solved cases before continuing.
test.smiles: CSc1ccccc1N1CCN(CCc2coc3ccccc23)CC1
measured.result: 99.7
--
test.smiles: Cc1ccc(-c2ccccc2N2CCN(CCc3c[nH]c4ccc(F)cc34)CC2)cc1
measured.result: 101
--
test.smiles: c1ccc(-c2ccccc2N2CCN(CCc3coc4ccccc34)CC2)cc1
measured.result: 99.5
--
test.smiles: N#Cc1ccc(-c2ccccc2N2CCN(CCc3c[nH]c4ccc(F)cc34)CC2)cc1
measured.result: 99.5

Would you kindly look at the next entry?
I have this compound here, `Cc1cccc(-c2ccccc2N2CCN(CCc3c[nH]c4ccc(F)cc34)CC2)c1` , and I need its recorded inhibition.
98.1

* * *

assay: Plasma concentration in Sprague-Dawley rat at 0.5 mg/kg, iv administered as single dose measured after 6 hrs by LC-MS/MS analysis; type: ADME, organism-based
endpoint: concentration at 6 h
Quick note: unit goes after the number.

I have this compound here, `Fc1ccc(N2CCN(CCCc3c[nH]c4ccc(F)cc34)CC2)c(-c2ccccc2)c1` , and I need its recorded concentration at 6 h.
12.4 ng/mL

* * *

target: Sodium-dependent serotonin transporter (Rattus norvegicus, UniProt P31652); test: Inhibition of [3H]serotonin reuptake in rat brain synaptosomes SERT after 15 mins by TopCount scintillation counting method
Sequence (P31652 whole entry): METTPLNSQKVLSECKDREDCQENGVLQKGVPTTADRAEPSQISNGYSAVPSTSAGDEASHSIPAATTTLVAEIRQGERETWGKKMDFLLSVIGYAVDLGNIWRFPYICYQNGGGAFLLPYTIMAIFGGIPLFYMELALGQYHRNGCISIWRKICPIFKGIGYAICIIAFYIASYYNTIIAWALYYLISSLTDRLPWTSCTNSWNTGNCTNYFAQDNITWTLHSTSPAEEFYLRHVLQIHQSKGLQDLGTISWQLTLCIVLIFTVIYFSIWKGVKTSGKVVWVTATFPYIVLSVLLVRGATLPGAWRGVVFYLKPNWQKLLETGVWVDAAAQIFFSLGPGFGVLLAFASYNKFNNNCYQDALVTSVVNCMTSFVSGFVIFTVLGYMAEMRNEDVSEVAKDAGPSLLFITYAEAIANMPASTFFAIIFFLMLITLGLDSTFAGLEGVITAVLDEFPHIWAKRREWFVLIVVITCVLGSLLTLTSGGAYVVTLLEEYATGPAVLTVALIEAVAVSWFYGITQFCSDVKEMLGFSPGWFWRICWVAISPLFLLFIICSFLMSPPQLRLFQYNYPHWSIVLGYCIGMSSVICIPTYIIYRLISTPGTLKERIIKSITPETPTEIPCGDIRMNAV
endpoint: IC50 (nM)
Give just the numeric value; nM need not be written.

Study these solved cases before continuing.
test.smiles: c1ccc(-c2ccccc2N2CCN(CCc3cc4ccccc4o3)CC2)cc1
endpoint: IC50
measured.result: 2900
//
test.smiles: c1ccc(-c2ccccc2N2CCN(CCc3coc4ccccc34)CC2)cc1
endpoint: IC50
measured.result: 210
//
test.smiles: Cc1ccc(-c2ccccc2N2CCN(CCc3c[nH]c4ccc(F)cc34)CC2)cc1
endpoint: IC50
measured.result: 1700

I have this compound here, `Fc1cccc(-c2ccccc2N2CCN(CCCc3c[nH]c4ccc(F)cc34)CC2)c1` , and I need its recorded IC50.
42

Next record, please: `Fc1ccc2[nH]cc(CCN3CCN(c4ccccc4-c4ccccc4)CC3)c2c1`
110

Next record, please: `Fc1cccc(-c2cc(F)ccc2N2CCN(CCCCc3c[nH]c4ccc(F)cc34)CC2)c1`
120

Next record, please: `Fc1cccc(-c2cc(F)ccc2N2CCN(CCCc3c[nH]c4ccc(F)cc34)CC2)c1`
31

Next record, please: `Fc1ccc2[nH]cc(CCCN3CCN(c4ccccc4-c4ccccc4)CC3)c2c1`
7.6

Next record, please: `Fc1ccc(N2CCN(CCCc3c[nH]c4ccc(F)cc34)CC2)c(-c2ccccc2)c1`
25

Next record, please: `N#Cc1ccc2[nH]cc(CCN3CCN(c4ccccc4-c4ccccc4)CC3)c2c1`
190

* * *

assay: AUC (0 to t) in Sprague-Dawley rat at 2 mg/kg, po administered as single dose by LC-MS/MS analysis; type: ADME, organism-based; details: in vivo
endpoint: AUC(0-t) (ng·h/mL)
Give just the numeric value; ng·h/mL need not be written.

I have this molecule here, `Fc1ccc(N2CCN(CCCc3c[nH]c4ccc(F)cc34)CC2)c(-c2ccccc2)c1` , and I need its recorded AUC(0-t).
536
